Reported % change of MS signal compared to control sample values follow for various compounds
# assay_system: MAP3K5 (Homo sapiens (Human), UniProt Q99683)
# Sequence (Q99683 whole entry): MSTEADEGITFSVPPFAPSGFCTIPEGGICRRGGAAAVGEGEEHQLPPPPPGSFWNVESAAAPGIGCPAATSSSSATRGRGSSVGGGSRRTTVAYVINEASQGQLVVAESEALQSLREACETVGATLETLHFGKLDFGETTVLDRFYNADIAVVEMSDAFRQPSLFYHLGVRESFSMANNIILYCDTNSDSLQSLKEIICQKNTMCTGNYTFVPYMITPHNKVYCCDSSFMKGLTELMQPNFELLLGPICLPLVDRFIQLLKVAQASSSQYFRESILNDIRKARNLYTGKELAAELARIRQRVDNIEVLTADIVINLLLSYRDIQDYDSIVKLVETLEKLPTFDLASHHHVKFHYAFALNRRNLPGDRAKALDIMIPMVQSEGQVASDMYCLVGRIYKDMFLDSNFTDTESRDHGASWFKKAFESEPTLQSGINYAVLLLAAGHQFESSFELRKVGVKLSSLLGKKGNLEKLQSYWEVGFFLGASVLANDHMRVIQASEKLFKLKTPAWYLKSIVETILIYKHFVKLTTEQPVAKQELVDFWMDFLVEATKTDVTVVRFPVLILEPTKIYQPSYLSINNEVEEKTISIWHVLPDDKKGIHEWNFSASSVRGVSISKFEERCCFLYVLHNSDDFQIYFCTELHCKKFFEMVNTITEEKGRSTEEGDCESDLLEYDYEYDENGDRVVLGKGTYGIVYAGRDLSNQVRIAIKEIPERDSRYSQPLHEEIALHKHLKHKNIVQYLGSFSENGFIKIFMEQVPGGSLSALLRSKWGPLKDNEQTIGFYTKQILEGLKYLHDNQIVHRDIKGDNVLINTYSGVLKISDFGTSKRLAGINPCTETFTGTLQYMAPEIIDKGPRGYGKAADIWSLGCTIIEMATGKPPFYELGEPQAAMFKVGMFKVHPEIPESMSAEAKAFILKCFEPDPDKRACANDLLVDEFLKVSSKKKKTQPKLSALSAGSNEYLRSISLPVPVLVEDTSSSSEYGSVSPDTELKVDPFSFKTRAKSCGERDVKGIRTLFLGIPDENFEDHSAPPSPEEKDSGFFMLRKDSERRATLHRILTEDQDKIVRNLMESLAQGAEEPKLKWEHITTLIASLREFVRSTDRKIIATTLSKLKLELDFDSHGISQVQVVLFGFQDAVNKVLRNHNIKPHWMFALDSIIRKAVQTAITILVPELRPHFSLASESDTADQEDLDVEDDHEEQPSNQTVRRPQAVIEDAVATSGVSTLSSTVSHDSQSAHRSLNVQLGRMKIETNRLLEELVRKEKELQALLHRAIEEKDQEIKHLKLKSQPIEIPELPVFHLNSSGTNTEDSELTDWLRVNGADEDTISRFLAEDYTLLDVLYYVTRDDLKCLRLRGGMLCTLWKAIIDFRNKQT
# assay_overview: KINATIV assay
# Format: cell-based
# settings: 1 μM, 90 minutes, BCWM.1 cells
Quick note: give the figure in %, leave out the unit.

Known % change of MS signal compared to control sample results, listed for orientation:
| compound | measurement |
| --- | --- |
| C=CC(=O)N1CCC(Cn2ccc(Nc3ncc(C(=O)Nc4c(C)cccc4Cl)s3)n2)C1 (stereo not shown) | −22.9 |
| C=CC(=O)N1CC[C@@H](Nc2nccc(Nc3ncc(C(=O)Nc4c(C)cccc4C)s3)n2)C1 | −10.7 |
| C=CC(=O)N1CCCCC(Nc2nccc(Nc3ncc(C(=O)Nc4c(C)cccc4C)s3)n2)C1 (stereo not shown) | −9.3 |

Now consider a different compound.
Value of measured % change of MS signal compared to control sample for the entry C=CC(=O)N1CCC(CNc2nccc(Nc3ncc(C(=O)Nc4c(C)cccc4C)s3)n2)C1 (racemic) : −0.7

Taken from patent US10844077B2.
